# System: NF-κB
# ASSAY: NF-κB assay: THP1-NF-κB-LUC cells, LPS-stimulated secreted luciferase
# Format: cell-based
# CONDITION: THP1-NF-κB-LUC cells; compounds 2 hours before LPS (10 ng/mL) for 18 hours; secreted luciferase; read-out: IC50 (NF-κB assay)
pIC50: −log10 of the molar value.
QUANTITY_KIND: pIC50

Prompt: Look at this compound and give its reported pIC50. Cc1ccc(NS(=O)(=O)c2cc(Cl)cc3c2OCC(=O)N3)cc1Cl
Response: > 7.00

Prompt: Look at this compound and give its reported pIC50. CCNS(=O)(=O)c1cc2c(cc1C)NC(=O)CO2
Response: < 5.00

Prompt: Look at this compound and give its reported pIC50. Cc1ccc(S(=O)(=O)c2c[nH]c3ccc(F)cc3c2=O)cc1F
Response: > 7.00

Prompt: Look at this compound and give its reported pIC50. CCS(=O)(=O)c1cc2c(c(S(=O)(=O)Nc3cccc(F)c3)c1)OCC(=O)N2
Response: > 7.00

Prompt: Look at this compound and give its reported pIC50. Cc1cc2c(cc1S(=O)(=O)Nc1cccc(Br)c1)OCC(=O)N2
Response: > 7.00

Prompt: Look at this compound and give its reported pIC50. O=c1c(S(=O)(=O)c2ccc(F)c(F)c2)c[nH]c2c(F)ccc(F)c12
Response: > 7.00

Prompt: Look at this compound and give its reported pIC50. CS(=O)(=O)c1cc2c(c(S(=O)(=O)Nc3cccc(F)c3)c1)OCC(=O)N2
Response: > 7.00

Prompt: Look at this compound and give its reported pIC50. Cc1cc2c(cc1S(=O)(=O)Nc1ccccc1Cl)OCC(=O)N2
Response: 6.00 to 7.00

Prompt: Look at this compound and give its reported pIC50. O=c1c(S(=O)(=O)c2cc(Cl)cc(Cl)c2)c[nH]c2ccc(Cl)cc12
Response: 5.00 to 6.00

---

Would you mind telling me the reported pIC50 of each entry?
# System: NF-κB
# ASSAY: NF-κB assay: THP1-NF-κB-LUC cells, LPS-stimulated secreted luciferase
# Assay type: cell-based
# CONDITION: THP1-NF-κB-LUC cells; compounds 2 hours before LPS (10 ng/mL) for 18 hours; secreted luciferase; read-out: IC50 (NF-κB assay)
pIC50: −log10 of the molar value.

Prompt: Hi! What's the reported pIC50 for CC(C)c1ccc(NS(=O)(=O)c2cc(Cl)cc3c2OCC(=O)N3)cc1 on NF-κB?
Response: > 7.00

Prompt: Hi! What's the reported pIC50 for O=C1COc2cc(S(=O)(=O)Nc3ccccc3)c(Cl)cc2N1 on NF-κB?
Response: 5.00 to 6.00

Prompt: Hi! What's the reported pIC50 for COc1ccc(S(=O)(=O)c2cn(CC(=O)Nc3ccc(C)cc3)c3ccc(Cl)cc3c2=O)cc1 on NF-κB?
Response: < 5.00

Prompt: Hi! What's the reported pIC50 for Cc1c(Cl)cc2c(c1S(=O)(=O)Nc1ccc(Cl)cc1)OCC(=O)N2 on NF-κB?
Response: > 7.00

Prompt: Hi! What's the reported pIC50 for COc1ccc(Cl)c2c(=O)c(S(=O)(=O)c3ccc(F)c(F)c3)c[nH]c12 on NF-κB?
Response: 6.00 to 7.00

---

# System: NF-κB
# ASSAY: NF-κB assay: THP1-NF-κB-LUC cells, LPS-stimulated secreted luciferase
# Format: cell-based
# CONDITION: THP1-NF-κB-LUC cells; compounds 2 hours before LPS (10 ng/mL) for 18 hours; secreted luciferase; read-out: IC50 (NF-κB assay)
QUANTITY_KIND: IC50

Prompt: Look at this compound and give its reported IC50. CS(=O)(=O)c1cc2c(c(S(=O)(=O)Nc3ccc(C#N)cc3)c1)OCC(=O)N2
Response: < 100 nM

Prompt: Look at this compound and give its reported IC50. O=c1c(S(=O)(=O)c2ccc(F)cc2)c[nH]c2ccncc12
Response: 1000 to 10000 nM

Prompt: Look at this compound and give its reported IC50. CCC1Oc2cc(S(=O)(=O)Nc3ccc(C)c(F)c3)c(Cl)cc2NC1=O (centres unmarked)
Response: < 100 nM

Prompt: Look at this compound and give its reported IC50. CCc1ccc(NS(=O)(=O)c2cc3c(cc2Br)N(C)C(=O)C(CC)O3)cc1 (centres unmarked)
Response: < 100 nM

Prompt: Look at this compound and give its reported IC50. N#Cc1ccc(S(=O)(=O)c2c[nH]c3cc(F)ccc3c2=O)cc1F
Response: 100 to 1000 nM
